test: Vancomycin concentration in dermal interstitial fluid (ISF) of human participants by wearable EAB sensor; type: in vivo; settings: dermal interstitial fluid (ISF), iv, 1 gram, participant 014 (hyper-perfusion phenotype), EAB sensor 810, single 1 gram IV infusion, read-out: Cmax in ISF compartment
readout type: Cmax

>>> recorded_result("CN[C@H](CC(C)C)C(=O)N[C@H]1C(=O)N[C@@H](CC(N)=O)C(=O)N[C@H]2C(=O)N[C@H]3C(=O)N[C@H](C(=O)N[C@H](C(=O)O)c4cc(O)cc(O)c4-c4cc3ccc4O)[C@H](O)c3ccc(c(Cl)c3)Oc3cc2cc(c3O[C@@H]2O[C@H](CO)[C@@H](O)[C@H](O)[C@H]2O[C@H]2C[C@](C)(N)[C@H](O)[C@H](C)O2)Oc2ccc(cc2Cl)[C@H]1O")
"~10000 ng/mL"

* * *

assay: Vancomycin concentration in dermal interstitial fluid (ISF) of human participants by wearable EAB sensor; type: in vivo; details: dermal interstitial fluid (ISF), iv, 1 gram, participant 015 (moderate-perfusion phenotype), EAB sensor 818, single 1 gram IV infusion, read every 5 minutes, read-out: Cmax in ISF compartment
readout type: Cmax

>>> recorded_result("CN[C@H](CC(C)C)C(=O)N[C@H]1C(=O)N[C@@H](CC(N)=O)C(=O)N[C@H]2C(=O)N[C@H]3C(=O)N[C@H](C(=O)N[C@H](C(=O)O)c4cc(O)cc(O)c4-c4cc3ccc4O)[C@H](O)c3ccc(c(Cl)c3)Oc3cc2cc(c3O[C@@H]2O[C@H](CO)[C@@H](O)[C@H](O)[C@H]2O[C@H]2C[C@](C)(N)[C@H](O)[C@H](C)O2)Oc2ccc(cc2Cl)[C@H]1O")
"~10000 ng/mL"

* * *

assay: Vancomycin concentration in dermal interstitial fluid (ISF) of human participants by wearable EAB sensor; type: in vivo; details: dermal interstitial fluid (ISF) relative to blood, intravenous, 1 gram, participant 014 (hyper-perfusion phenotype), read-out: Proportion of vancomycin monitored in ISF compartment in comparison to blood
readout type: Kp

>>> recorded_result("CN[C@H](CC(C)C)C(=O)N[C@H]1C(=O)N[C@@H](CC(N)=O)C(=O)N[C@H]2C(=O)N[C@H]3C(=O)N[C@H](C(=O)N[C@H](C(=O)O)c4cc(O)cc(O)c4-c4cc3ccc4O)[C@H](O)c3ccc(c(Cl)c3)Oc3cc2cc(c3O[C@@H]2O[C@H](CO)[C@@H](O)[C@H](O)[C@H]2O[C@H]2C[C@](C)(N)[C@H](O)[C@H](C)O2)Oc2ccc(cc2Cl)[C@H]1O")
"~0.86"

* * *

experiment: Vancomycin concentration in dermal interstitial fluid (ISF) of human participants by wearable EAB sensor; type: in vivo; details: dermal interstitial fluid (ISF) relative to blood, intravenous, 1 gram, participant 015 (moderate-perfusion phenotype), read-out: Proportion of vancomycin monitored in ISF compartment in comparison to blood
readout type: Kp

>>> recorded_result("CN[C@H](CC(C)C)C(=O)N[C@H]1C(=O)N[C@@H](CC(N)=O)C(=O)N[C@H]2C(=O)N[C@H]3C(=O)N[C@H](C(=O)N[C@H](C(=O)O)c4cc(O)cc(O)c4-c4cc3ccc4O)[C@H](O)c3ccc(c(Cl)c3)Oc3cc2cc(c3O[C@@H]2O[C@H](CO)[C@@H](O)[C@H](O)[C@H]2O[C@H]2C[C@](C)(N)[C@H](O)[C@H](C)O2)Oc2ccc(cc2Cl)[C@H]1O")
"~0.3"
